Data origin, for the record: ChEMBL document CHEMBL4602657

# fold change (FC) per record follows
- TEST SYSTEM: Nuclear factor erythroid 2-related factor 2 (Homo sapiens) (UniProt Q16236)
- ASSAY REMARKS: Activation of Nrf2 in human HepG2-ARE-C8 cells assessed as fold change at 10 uM measured after 12 hrs by luciferase reporter gene assay relative to control
- Format: cell-based
ASSAY READOUT: fold change (FC)

- SUBSTANCE SMILES: "N#Cc1ccc(-c2nnc(-c3ccc4nc[nH]c4c3)o2)cc1"
  EXPERIMENTAL VALUE: 1.33
- SUBSTANCE SMILES: "Fc1ccc(-c2nnc(-c3ccc4nc[nH]c4c3)s2)cc1"
  EXPERIMENTAL VALUE: 13.1
- SUBSTANCE SMILES: "Brc1ccc(-c2nnc(-c3ccc4nc[nH]c4c3)o2)cc1"
  EXPERIMENTAL VALUE: 7.98

* * *

# fold change (FC) per record follows
- TEST SYSTEM: Nuclear factor erythroid 2-related factor 2 (Homo sapiens) (UniProt Q16236)
- ASSAY REMARKS: Activation of Nrf2 in human HepG2-ARE-C8 cells assessed as fold change at 40 uM measured after 12 hrs by luciferase reporter gene assay relative to control
- Assay type: cell-based

- SUBSTANCE SMILES: "Fc1ccc(-c2nnc(-c3ccc4nc[nH]c4c3)o2)cc1"
  fold change (FC): 8.73
- SUBSTANCE SMILES: "Fc1ccc(-c2nnc(-c3ccc4nc[nH]c4c3)s2)cc1"
  fold change (FC): 22.3
- SUBSTANCE SMILES: "CC(C)(C)c1cc(O)ccc1O"
  fold change (FC): 5.1
- SUBSTANCE SMILES: "c1ccc(-c2ccc(-c3nnc(-c4ccc5nc[nH]c5c4)o3)cc2)cc1"
  fold change (FC): 5.18
- SUBSTANCE SMILES: "O=[N+]([O-])c1ccc(-c2nnc(-c3ccc4nc[nH]c4c3)o2)cc1"
  fold change (FC): 20.1
- SUBSTANCE SMILES: "CCCCc1ccc(-c2nnc(-c3ccc4nc[nH]c4c3)s2)cc1"
  fold change (FC): 1.33
- SUBSTANCE SMILES: "CCCCc1ccc(-c2nnc(-c3ccc4nc[nH]c4c3)o2)cc1"
  fold change (FC): 24.6
- SUBSTANCE SMILES: "O=[N+]([O-])c1ccc(-c2nnc(-c3ccc4nc[nH]c4c3)s2)cc1"
  fold change (FC): 22.2
- SUBSTANCE SMILES: "Brc1ccc(-c2nnc(-c3ccc4nc[nH]c4c3)o2)cc1"
  fold change (FC): 6.23
- SUBSTANCE SMILES: "Fc1cccc(-c2nnc(-c3ccc4nc[nH]c4c3)o2)c1"
  fold change (FC): 1.75
- SUBSTANCE SMILES: "N#Cc1ccc(-c2nnc(-c3ccc4nc[nH]c4c3)o2)cc1"
  fold change (FC): 1.78
- SUBSTANCE SMILES: "c1ccc(-c2nnc(-c3ccc4nc[nH]c4c3)o2)cc1"
  fold change (FC): 13.5
- SUBSTANCE SMILES: "Cc1ccc(-c2nnc(-c3ccc4nc[nH]c4c3)o2)cc1"
  fold change (FC): 4.95
- SUBSTANCE SMILES: "COc1cccc(-c2nnc(-c3ccc4nc[nH]c4c3)o2)c1"
  fold change (FC): 2.41
- SUBSTANCE SMILES: "c1ccc(-c2nnc(-c3ccc4nc[nH]c4c3)s2)cc1"
  fold change (FC): 13.8

* * *

- ASSAY REMARKS: Lipophilicity, logD of the compound at pH 7.4
- Type: physicochemical
- SETTINGS: buffer

- SUBSTANCE SMILES: "Fc1ccc(-c2nnc(-c3ccc4nc[nH]c4c3)o2)cc1"
  logD: 2.89

* * *

- ASSAY REMARKS: Intrinsic aqueous solubility of the compound
- Format: physicochemical
- SETTINGS: read-out: Intrinsic_solubility

- SUBSTANCE SMILES: "Fc1ccc(-c2nnc(-c3ccc4nc[nH]c4c3)o2)cc1"
  solubility [µM]: 102

* * *

- TEST SYSTEM: UniProt:Q16236
- Sequence (whole entry): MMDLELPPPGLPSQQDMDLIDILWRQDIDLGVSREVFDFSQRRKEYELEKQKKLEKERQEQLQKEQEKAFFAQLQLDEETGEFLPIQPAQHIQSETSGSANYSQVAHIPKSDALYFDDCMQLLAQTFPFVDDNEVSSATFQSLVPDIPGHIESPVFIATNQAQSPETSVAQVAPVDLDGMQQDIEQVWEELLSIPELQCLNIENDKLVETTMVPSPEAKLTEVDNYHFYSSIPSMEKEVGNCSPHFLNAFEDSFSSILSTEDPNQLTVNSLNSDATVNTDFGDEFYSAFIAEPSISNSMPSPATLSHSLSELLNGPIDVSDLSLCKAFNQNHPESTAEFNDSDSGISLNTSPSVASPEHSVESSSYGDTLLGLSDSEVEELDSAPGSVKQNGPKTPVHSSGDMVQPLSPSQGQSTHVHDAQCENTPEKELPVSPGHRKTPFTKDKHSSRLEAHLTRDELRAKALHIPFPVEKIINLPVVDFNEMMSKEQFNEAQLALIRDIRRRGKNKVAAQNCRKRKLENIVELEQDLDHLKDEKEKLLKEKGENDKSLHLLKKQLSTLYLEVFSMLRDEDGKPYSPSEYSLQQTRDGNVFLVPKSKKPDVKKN
- ASSAY REMARKS: Activation of Nrf2 in human HepG2-ARE-C8 cells assessed as fold change at 1 uM measured after 12 hrs by luciferase reporter gene assay relative to control
- Format: cell-based
# fold change (FC) per record follows
ASSAY READOUT: fold change (FC)

- SUBSTANCE SMILES: "Fc1ccc(-c2nnc(-c3ccc4nc[nH]c4c3)o2)cc1"
  EXPERIMENTAL VALUE: 1.28
- SUBSTANCE SMILES: "CC(C)(C)c1cc(O)ccc1O"
  EXPERIMENTAL VALUE: 1.7
- SUBSTANCE SMILES: "Fc1ccc(-c2nnc(-c3ccc4nc[nH]c4c3)s2)cc1"
  EXPERIMENTAL VALUE: 3.25
- SUBSTANCE SMILES: "Fc1cccc(-c2nnc(-c3ccc4nc[nH]c4c3)o2)c1"
  EXPERIMENTAL VALUE: 2.38
- SUBSTANCE SMILES: "CCCCc1ccc(-c2nnc(-c3ccc4nc[nH]c4c3)o2)cc1"
  EXPERIMENTAL VALUE: 6.73
- SUBSTANCE SMILES: "N#Cc1ccc(-c2nnc(-c3ccc4nc[nH]c4c3)o2)cc1"
  EXPERIMENTAL VALUE: 1.65
- SUBSTANCE SMILES: "CCCCc1ccc(-c2nnc(-c3ccc4nc[nH]c4c3)s2)cc1"
  EXPERIMENTAL VALUE: 2.33
- SUBSTANCE SMILES: "c1ccc(-c2nnc(-c3ccc4nc[nH]c4c3)s2)cc1"
  EXPERIMENTAL VALUE: 2.03
- SUBSTANCE SMILES: "O=[N+]([O-])c1ccc(-c2nnc(-c3ccc4nc[nH]c4c3)o2)cc1"
  EXPERIMENTAL VALUE: 1.9
- SUBSTANCE SMILES: "Brc1ccc(-c2nnc(-c3ccc4nc[nH]c4c3)o2)cc1"
  EXPERIMENTAL VALUE: 4.85
- SUBSTANCE SMILES: "COc1cccc(-c2nnc(-c3ccc4nc[nH]c4c3)o2)c1"
  EXPERIMENTAL VALUE: 1.72
- SUBSTANCE SMILES: "c1ccc(-c2nnc(-c3ccc4nc[nH]c4c3)o2)cc1"
  EXPERIMENTAL VALUE: 2.35
- SUBSTANCE SMILES: "O=[N+]([O-])c1ccc(-c2nnc(-c3ccc4nc[nH]c4c3)s2)cc1"
  EXPERIMENTAL VALUE: 5.75
- SUBSTANCE SMILES: "c1ccc(-c2ccc(-c3nnc(-c4ccc5nc[nH]c5c4)o3)cc2)cc1"
  EXPERIMENTAL VALUE: 1.6
- SUBSTANCE SMILES: "Cc1ccc(-c2nnc(-c3ccc4nc[nH]c4c3)o2)cc1"
  EXPERIMENTAL VALUE: 1.45

* * *

- TEST SYSTEM: UniProtKB Q16236
- ASSAY REMARKS: Activation of Nrf2 in human HepG2-ARE-C8 cells assessed as fold change at 20 uM measured after 12 hrs by luciferase reporter gene assay relative to control
- Format: cell-based
# fold change (FC) per record follows
ASSAY READOUT: fold change (FC)

- SUBSTANCE SMILES: "Fc1ccc(-c2nnc(-c3ccc4nc[nH]c4c3)s2)cc1"
  TEST SYSTEM: "UniProtKB Q16236"
  ASSAY READOUT: "fold change (FC)"
  EXPERIMENTAL VALUE: 14.9
- SUBSTANCE SMILES: "CCCCc1ccc(-c2nnc(-c3ccc4nc[nH]c4c3)s2)cc1"
  TEST SYSTEM: "UniProtKB Q16236"
  ASSAY READOUT: "fold change (FC)"
  EXPERIMENTAL VALUE: 1.68
- SUBSTANCE SMILES: "Cc1ccc(-c2nnc(-c3ccc4nc[nH]c4c3)o2)cc1"
  TEST SYSTEM: "UniProtKB Q16236"
  ASSAY READOUT: "fold change (FC)"
  EXPERIMENTAL VALUE: 3.35
- SUBSTANCE SMILES: "Fc1ccc(-c2nnc(-c3ccc4nc[nH]c4c3)o2)cc1"
  TEST SYSTEM: "UniProtKB Q16236"
  ASSAY READOUT: "fold change (FC)"
  EXPERIMENTAL VALUE: 6.83
- SUBSTANCE SMILES: "c1ccc(-c2nnc(-c3ccc4nc[nH]c4c3)o2)cc1"
  TEST SYSTEM: "UniProtKB Q16236"
  ASSAY READOUT: "fold change (FC)"
  EXPERIMENTAL VALUE: 9.15
- SUBSTANCE SMILES: "Brc1ccc(-c2nnc(-c3ccc4nc[nH]c4c3)o2)cc1"
  TEST SYSTEM: "UniProtKB Q16236"
  ASSAY READOUT: "fold change (FC)"
  EXPERIMENTAL VALUE: 8.08
